Test system: MCF-7 breast cancer cells
Assay: alamarBlue cell viability assay
Assay type: cell-based
Settings: Homo sapiens, MCF7; MCF-7
attribute_measured: IC50 (µM)

COc1ccc(/C=C/C(c2cc(OC)c(OC)c(OC)c2)n2cncn2)cc1O (stereo not shown) [Compound 22b] | 0.39

These data points were gathered from paper PMC11769294.
